B1: C2CD2L (parent)
chain: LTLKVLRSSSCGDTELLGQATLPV

Variants of: B1
Test Name: protein stability index of a GFP-peptide fusion (GPS, HEK-293T) (PSI 1-6); higher = more stable;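 further: lentivirally expressed fusions sorted by FACS into six bins by GFP to DsRed ratio, PSI derived from sequencing read proportions per bin multiplied by bin number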
Measurement Parameters: c terminus: a fixed tail appended
# protein stability index annotations
Readout Kind: protein stability index

variant_designation=S10C readout_kind="protein stability index" numeric_readout=3.45
variant_designation=L6G readout_kind="protein stability index" numeric_readout=1.96
variant_designation=L16S readout_kind="protein stability index" numeric_readout=1.72
variant_designation=A20T readout_kind="protein stability index" numeric_readout=1.79
variant_designation=T2C readout_kind="protein stability index" numeric_readout=2.32
variant_designation=T21R readout_kind="protein stability index" numeric_readout=3.3
variant_designation=L1C readout_kind="protein stability index" numeric_readout=2.58
variant_designation=V24G readout_kind="protein stability index" numeric_readout=2.02
variant_designation=T2Q readout_kind="protein stability index" numeric_readout=2.93
variant_designation=T21A readout_kind="protein stability index" numeric_readout=1.09
variant_designation=K4Y readout_kind="protein stability index" numeric_readout=3.27
variant_designation=V5F readout_kind="protein stability index" numeric_readout=1.86
variant_designation=S9H readout_kind="protein stability index" numeric_readout=2.94
variant_designation=C11E readout_kind="protein stability index" numeric_readout=1.66
variant_designation=Q19C readout_kind="protein stability index" numeric_readout=4.52
variant_designation=L6F readout_kind="protein stability index" numeric_readout=2.21
variant_designation=E15S readout_kind="protein stability index" numeric_readout=3.58
variant_designation=L17V readout_kind="protein stability index" numeric_readout=2.44
variant_designation=Q19N readout_kind="protein stability index" numeric_readout=3.21
variant_designation=L3P readout_kind="protein stability index" numeric_readout=3.51
variant_designation=C11P readout_kind="protein stability index" numeric_readout=1.34
variant_designation=G18R readout_kind="protein stability index" numeric_readout=2.06
